pKi: −log10 of the molar value.
Target or system UniProtKB P29474; metric pKi; compiled from varied reports.
Sequence (P29474 whole entry): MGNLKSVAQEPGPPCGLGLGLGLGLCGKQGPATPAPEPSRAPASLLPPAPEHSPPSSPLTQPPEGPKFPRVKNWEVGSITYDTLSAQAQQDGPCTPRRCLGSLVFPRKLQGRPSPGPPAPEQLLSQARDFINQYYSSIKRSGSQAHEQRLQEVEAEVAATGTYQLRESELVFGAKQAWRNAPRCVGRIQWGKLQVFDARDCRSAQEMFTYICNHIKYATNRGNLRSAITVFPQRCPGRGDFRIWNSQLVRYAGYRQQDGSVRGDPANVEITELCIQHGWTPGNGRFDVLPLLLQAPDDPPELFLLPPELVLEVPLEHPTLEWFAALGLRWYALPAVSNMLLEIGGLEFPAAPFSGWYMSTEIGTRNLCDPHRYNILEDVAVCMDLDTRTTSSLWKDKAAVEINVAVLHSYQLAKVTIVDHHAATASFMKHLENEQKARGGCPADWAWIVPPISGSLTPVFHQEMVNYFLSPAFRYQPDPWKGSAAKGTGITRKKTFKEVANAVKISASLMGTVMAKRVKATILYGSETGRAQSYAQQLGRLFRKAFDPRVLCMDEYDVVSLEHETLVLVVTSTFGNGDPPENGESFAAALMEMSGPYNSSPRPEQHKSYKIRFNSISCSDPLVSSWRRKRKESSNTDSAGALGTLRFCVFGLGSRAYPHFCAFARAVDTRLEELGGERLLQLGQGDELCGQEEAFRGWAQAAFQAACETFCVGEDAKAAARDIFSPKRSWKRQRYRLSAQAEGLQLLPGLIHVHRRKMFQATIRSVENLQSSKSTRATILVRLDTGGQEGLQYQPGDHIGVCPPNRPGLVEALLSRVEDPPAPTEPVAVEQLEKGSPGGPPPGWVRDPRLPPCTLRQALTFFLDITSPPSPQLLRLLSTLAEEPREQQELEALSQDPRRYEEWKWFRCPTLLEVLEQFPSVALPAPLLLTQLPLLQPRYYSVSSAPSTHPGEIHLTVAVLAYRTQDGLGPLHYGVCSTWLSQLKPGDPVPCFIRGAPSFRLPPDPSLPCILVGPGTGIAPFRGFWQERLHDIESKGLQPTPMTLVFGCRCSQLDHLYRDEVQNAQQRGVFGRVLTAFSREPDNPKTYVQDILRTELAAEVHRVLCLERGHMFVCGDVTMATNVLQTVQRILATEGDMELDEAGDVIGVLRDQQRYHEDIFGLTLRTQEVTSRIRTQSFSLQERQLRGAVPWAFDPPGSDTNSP

COMPOUND	pKi
Cc1cc(N)nc(C#Cc2cc(CN(C)C)cc(F)c2F)c1.Cl.Cl	5.11
CNC(N)=Nc1cccc(CC(N)C(=O)O)c1 (stereo not given)	5.06
Cc1cc(N)nc(CCc2cc(CCN3CCN(C)CC3)cc(F)c2F)c1	4.91
CCSC(=N)Nc1ccc([N+](=O)[O-])cc1	5.04
CNCc1cccc(-c2cncc(CCc3cc(C)cc(N)n3)c2)c1	5.06
